- TGT: the molecule itself
- METHOD_NOTES: SEC; homodimeric NF-κB complexes concentrated and injected on Superdex 200 16/60 in 20 mM Tris-HCl pH 7.5, 150 mM NaCl, 5 mM β-mercaptoethanol, 2% glycerol
TEST_READOUT: binding result

Per the records, this protein ( ΔDBD-p50 (residues 243-366) (domain or fragment, human, UniProt P19838 243-366, looked up, also called p50 dimerization domain; source: E. coli BL21 DE3, purified (Glutathione Resin, PreScission cleavage, Superdex 200)) KAPNASNLKIVRMDRTAGCVTGGEEIYLLCDKVQKDDIQIRFYEEEENGGVWEGFGDFSPTDVHRQFAIVFKTPKYKDINITKPASVFVQLRRKSDLETSEPKPFLYYPEIKDKEEVQRKRQKL ) has binding result equal to binds

Data point: NF-κB p50 (residues 1-366) (domain or fragment, human, UniProt P19838 1-366, looked up, NF-κB p50, human, residues 1-366 (Rel homology region with the C-terminal NLS); also called p50 RHR; source: E. coli BL21 DE3, purified (Glutathione Resin, PreScission cleavage, Superdex 200)) MAEDDPYLGRPEQMFHLDPSLTHTIFNPEVFQPQMALPTDGPYLQILEQPKQRGFRFRYVCEGPSHGGLPGASSEKNKKSYPQVKICNYVGPAKVIVQLVTNGKNIHLHAHSLVGKHCEDGICTVTAGPKDMVVGFANLGILHVTKKKVFETLEARMTEACIRGYNPGLLVHPDLAYLQAEGGGDRQLGDREKELIRQAALQQTKEMDLSVVRLMFTAFLPDSTGSFTRRLEPVVSDAIYDSKAPNASNLKIVRMDRTAGCVTGGEEIYLLCDKVQKDDIQIRFYEEEENGGVWEGFGDFSPTDVHRQFAIVFKTPKYKDINITKPASVFVQLRRKSDLETSEPKPFLYYPEIKDKEEVQRKRQKL ; binding result = binds

Record ΔNLS-p65 (residues 1-290) (domain or fragment, human, UniProt Q04206 1-290, looked up, NF-κB p65 (RelA), human, residues 1-290 (stop codon at position D291), lacking the C-terminal NLS, untagged; source: E. coli BL21 DE3, purified (polyethyleneimine and ammonium sulfate precipitation, HiTrap SP, Superdex 200)) MDELFPLIFPAEPAQASGPYVEIIEQPKQRGMRFRYKCEGRSAGSIPGERSTDTTKTHPTIKINGYTGPGTVRISLVTKDPPHRPHPHELVGKDCRDGFYEAELCPDRCIHSFQNLGIQCVKKRDLEQAISQRIQTNNNPFQVPIEEQRGDYDLNAVRLCFQVTVRDPSGRPLRLPPVLSHPIFDNRAPNTAELKICRVNRNSGSCLGGDEIFLLCDKVQKEDIEVYFTGPGWEARGSFSQADVHRQVAIVFRTPPYADPSLQAPVRVSMQLRRPSDRELSEPMEFQYLP . Reported binding result: binds
